Molecular target: Adenosine receptor A2a (Homo sapiens)
Sequence (P29274 whole entry): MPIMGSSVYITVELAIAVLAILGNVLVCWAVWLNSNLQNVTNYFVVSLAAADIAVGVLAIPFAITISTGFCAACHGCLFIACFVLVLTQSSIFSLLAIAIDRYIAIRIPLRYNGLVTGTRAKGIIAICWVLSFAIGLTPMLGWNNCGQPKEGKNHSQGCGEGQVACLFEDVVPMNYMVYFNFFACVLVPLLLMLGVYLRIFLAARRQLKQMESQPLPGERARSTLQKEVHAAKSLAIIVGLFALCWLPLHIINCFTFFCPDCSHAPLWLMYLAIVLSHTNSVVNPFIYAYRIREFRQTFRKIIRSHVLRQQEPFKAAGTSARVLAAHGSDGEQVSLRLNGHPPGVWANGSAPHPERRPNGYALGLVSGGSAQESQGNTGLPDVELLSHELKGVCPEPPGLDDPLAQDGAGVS
Assay: Agonist activity at human adenosine A2A receptor expressed in FlpIn-CHO cells assessed as inhibition of forskolin-induced cAMP accumulation after 30 mins by fluorescence assay
Value kind: EC50

>  <Mol>
CCN(CC)c1nc(NC2CCCC2)c2ncn([C@@H]3O[C@H](C(=O)NC)[C@@H](O)[C@H]3O)c2n1

>  <Recorded result>
> 10 µM

$$$$
>  <Mol>
CCNc1nc(N)nc2c1ncn2[C@@H]1O[C@H](C(=O)NC)[C@@H](O)[C@H]1O

>  <Recorded result>
> 10 µM

$$$$
>  <Mol>
CNC(=O)[C@H]1O[C@@H](n2cnc3c(NC)nc(N)nc32)[C@H](O)[C@@H]1O

>  <Recorded result>
> 10 µM

$$$$

Hello, the source for this data is ChEMBL document CHEMBL3132785, in case you need it.
